Values were extracted from the supplement of paper PMC6897291.

tested on: RIVA; assay: growth inhibition by drug alone (1 - RLU/untreated control) (fraction); higher = stronger inhibition; conditions: 100 nM; time (day): 6; 177Lu-lilotomab satetraxetan 0 ug/ml
Structures can show the parent of a compound that is named as a salt.
Categorized via growth inhibition by drug alone: range A = under -0.2, range B = from -0.2 up to -0.03, range C = -0.03 and over

# count of solved cases: 4
{"columns": ["MOLECULE", "DISCRETE_LABEL"],
 "data": [
  ["Cc1ccc(Nc2nccc(N(C)c3ccc4c(C)n(C)nc4c3)n2)cc1S(N)(=O)=O [Pazopanib]", "range B"],
  ["Cc1[nH]c(/C=C2\\C(=O)Nc3ccc(S(=O)(=O)Cc4c(Cl)cccc4Cl)cc32)c(C)c1C(=O)N1CCC[C@@H]1CN1CCCC1", "range A"],
  ["COc1cc2nccc(Oc3ccc(NC(=O)NC4CC4)c(Cl)c3)c2cc1C(N)=O [E7080 (Lenvatinib)]", "range A"],
  ["CC(=O)Nc1nc(C)c(-c2ccc(Cl)c(S(=O)(=O)NCCO)c2)s1", "range B"]
]}

Query: Textbook exercise: identify the category of the molecule given here, `COc1ccc(CCN(C)CCCOc2ccc(S(=O)(=O)c3c(C(C)C)n(C)c4ccccc34)cc2)cc1OC` , according to its measured value.
Response: range A

Query: Textbook exercise: identify the category of the molecule given here, CCN(CC)C(=S)SSC(=S)N(CC)CC [Disulfiram (Antabuse)] , according to its measured value.
Response: range A

Query: Textbook exercise: identify the category of the molecule given here, CC/C(=C(\c1ccccc1)c1ccc(OCCN(C)C)cc1)c1ccccc1 [Tamoxifen Citrate (Nolvadex)] , according to its measured value.
Response: range C

Query: Textbook exercise: identify the category of the molecule given here, Nc1nc(Cl)nc2c1ncn2[C@@H]1O[C@H](CO)[C@@H](O)[C@@H]1F [Clofarabine] , according to its measured value.
Response: range C

Query: Textbook exercise: identify the category of the molecule given here, CCC(=O)N1CCN(c2ccc(-n3c(=O)ccc4cnc5ccc(-c6cnc7ccccc7c6)cc5c43)cc2C(F)(F)F)CC1 [Torin 1] , according to its measured value.
Response: range C

Query: Textbook exercise: identify the category of the molecule given here, `CN(C)c1ccccc1CN1CCCN(Cc2ccccc2N(C)C)C1c1ccncc1` , according to its measured value.
Response: range A
